- Tested on: Saos-2 (Osteosarcoma)
- Method Summary: combination Emax (second highest fraction inhibited in the dose matrix, 72 h); higher = more inhibition; extreme values may be limits of the assay
Experimental Endpoint: combination Emax
Answer using only a numeral; do not append any unit.

>  <Molecule>
COc1nnc2ccc(N3CCC(c4ccc(OCCN5CCN(C)C(=O)[C@H]5C)cc4)CC3)nn12 [AZD5153] + Cn1cnc2c(F)c(Nc3ccc(Br)cc3Cl)c(C(=O)NOCCO)cc21 [Selumetinib] (first compound max 1 µM, 7x7, partner max 10 µM)

>  <combination Emax>
0.516

$$$$

Can you look up the measured combination Emax of N#Cc1cnc(Nc2cc(NC[C@H]3CNCCO3)c(C(F)(F)F)cn2)cn1 [SRA737] + O=c1[nH]cc(F)c(=O)[nH]1 [5-Fluorouracil] (first compound max 10 µM, 7x7, partner max 20 µM) for me?
0.457
